# Protocol description: Caco-2 membrane permeability, improved method as used in the following Examples (96-well, 20 to 24 h preincubation)
# Format: in vitro ADME
# Condition label: human, Caco-2, Caco-2 (cm/sec)
Starred links: 1 amine or outer side, 2 acyl side, 3 side chain; linkers in the order of their positions; H or OH if unused. Positions of bridges follow the written chain, without caps; N, C: chain ends. Non-standard residues stand in square brackets, D forms with d. Residues, ends and D or L forms follow the SMILES beside them. *: point of attachment. Phe(4-CF3) = N[C@@H](Cc1ccc(C(F)(F)F)cc1)C(=O)O; NMePhe(3-Cl) = CN[C@@H](Cc1cccc(Cl)c1)C(=O)O; NMeF = CN[C@@H](Cc1ccccc1)C(=O)O; NMeGABA = CN(CCCC(=O)[*:2])[*:1]; NMeD = CN[C@@H](CC(=O)O)C(=O)O; NMeL = CN[C@@H](CC(C)C)C(=O)O; NMeV = CN[C@H](C(=O)O)C(C)C; NMeA = CN[C@@H](C)C(=O)O; Piperidide = C1CCN(*)CC1; NEtG = CCNCC(=O)O; Sar = CNCC(=O)O; tBu = CC(C)(C)*
Measured quantity: Papp A→B at 180 min (×10⁻⁶ cm/s)
Note: unit ×10⁻⁶ cm/s is implicit; provide only the numeric part.

Here's what some known entries look like.
CC(C)C[C@@H]1NC(=O)[C@H](CC(C)C)N(C)C(=O)[C@H](C)N(C)C(=O)[C@@H](C(C)C)NC(=O)C[C@@H](C(=O)N2CCCCC2)NC(=O)[C@H]([C@@H](C)O)NC(=O)[C@H](C)N(C)C(=O)CN(C)C(=O)[C@H](CC(C)C)N(C)C(=O)[C@H](Cc2c[nH]c3ccccc23)NC(=O)[C@H](Cc2ccccc2)N(C)C1=O [pd100] ([dV][NMeA][NMeL]L[NMeF]W[NMeL][Sar][NMeA]TD-Piperidide; lactam N-11)	0.11
CC[C@H](C)[C@@H]1NC(=O)[C@H](C(C)C)N(C)C(=O)CCCN(C)C(=O)C[C@@H](C(=O)N2CCCCC2)NC(=O)[C@H](CC(C)C)N(C)C(=O)[C@H](C)N(C)C(=O)[C@H](Cc2ccc(O)cc2)NC(=O)[C@H](CC(C)C)N(C)C(=O)[C@H](COC(C)(C)C)NC(=O)[C@H](Cc2ccccc2)N(C)C(=O)[C@H](CC(C)C)N(C)C1=O [pd125] ([NMeGABA][NMeV]I[NMeL][NMeF]S(tBu)[NMeL]Y[NMeA][NMeL]D-Piperidide; lactam N-11)	0.45
CC(C)C[C@H]1C(=O)N[C@@H](COC(C)(C)C)C(=O)N(C)[C@@H](Cc2ccccc2)C(=O)N(C)[C@@H](CC(C)C)C(=O)N[C@H](C(=O)N2CCCCC2)CC(=O)N2CCC[C@@H]2C(=O)N(C)[C@@H](Cc2cccc(Cl)c2)C(=O)N[C@@H](C(C)C)C(=O)N(C)[C@@H](C(C)C)C(=O)N[C@@H]([C@@H](C)O)C(=O)N(C)CC(=O)N1C [pd155] ([dP][NMePhe(3-Cl)]V[NMeV]T[Sar][NMeL]S(tBu)[NMeF][NMeL]D-Piperidide; lactam N-11)	2.1
CCN1CC(=O)N[C@@H]([C@@H](C)O)C(=O)N(C)[C@@H](CC(C)C)C(=O)N(C)[C@@H](CC(C)C)C(=O)N[C@@H](Cc2ccc(C(F)(F)F)cc2)C(=O)N[C@H](C(=O)N2CCCCC2)CC(=O)N[C@@H](COC(C)(C)C)C(=O)N(C)[C@@H](CC(C)C)C1=O [pd143] (S(tBu)[NMeL][NEtG]T[NMeL][NMeL][Phe(4-CF3)]D-Piperidide; lactam N-8)	1.1

Read the next record carefully.
Query: I have this compound here, CC(C)C[C@@H]1NC(=O)[C@H](Cc2ccccc2)N(C)C(=O)[C@H]2CCCN2C(=O)C[C@@H](C(=O)N2CCCCC2)N(C)C(=O)[C@H](Cc2ccccc2)N(C)C(=O)[C@H](Cc2ccccc2)N(C)C(=O)[C@H](COC(C)(C)C)NC(=O)[C@H](C(C)C)N(C)C(=O)CN(C)C(=O)[C@H]([C@@H](C)O)NC(=O)[C@H](CC(C)C)N(C)C1=O [pd200] ([dP][NMeF]L[NMeL]T[Sar][NMeV]S(tBu)[NMeF][NMeF][NMeD]-Piperidide; lactam N-11) , and I need its recorded Papp A→B at 180 min.
Reply: 2.6
